# System: HEK293T
# procedureDetails: plasma membrane surface immunostaining intensity (anti-HA, deep receptor scanning) (arbitrary fluorescence units); higher = higher plasma membrane expression
# assayContext: GPCR class: A (Olfactory)
Where plasma membrane surface immunostaining intensity equals or exceeds 200, the correct label is True; where it does not, the label is False.

Here are 3 sequences together with their reported answers.
MGTDNQTWVSEFILLGLSSDWDTRVSLFVLFLVMYVVTVLGNCLIVLLIRLDSRLHTPMYFFLTNLSLVDVSYATSVVPQLLAHFLAEHKAIPFQSCAAQLFFSLALGGIEFVLLAVMAYDRYVAVCDALRYSAIMHGGLCARLAITSWVSGFISSPVQTAITFQLPMCRNKFIDHISCELLAVVRLACVDTSSNEVTIMVSSIVLLMTPFCLVLLSYIQIISTILKIQSREGRKKAFHTCASHLTVVALCYGVAIFTYIQPHSSPSVLQEKLFSVFYAILTPMLNPMIYSLRNKEVKGAWQKLLWKFSGLTSKLAT [OR2F1] :: False
MEPRNQTSASQFILLGLSEKPEQETLLFSLFFCMYLVMVVGNLLIILAISIDSHLHTPMYFFLANLSLVDFCLATNTIPKMLVSLQTGSKAISYPCCLIQMYFFHFFGIVDSVIIAMMAYDRFVAICHPLHYAKIMSLRLCRLLVGALWAFSCFISLTHILLMARLVFCGSHEVPHYFCDLTPILRLSCTDTSVNRIFILIVAGMVIATPFVCILASYARILVAIMKVPSAGGRKKAFSTCSSHLSVVALFYGTTIGVYLCPSSVLTTVKEKASAVMYTAVTPMLNPFIYSLRNRDLKGALRKLVNRKITSSS [OR1M1] :: False
MNSENLTRAAVAPAEFVLLGITNRWDLRVALFLTCLPVYLVSLLGNMGMALLIRMDARLHTPMYFFLANLSLLDACYSSAIGPKMLVDLLLPRATIPYTACALQMFVFAGLADTECCLLAAMAYDRYVAIRNPLLYTTAMSQRLCLALLGASGLGGAVSAFVHTTLTFRLSFCRSRKINSFFCDIPPLLAISCSDTSLNELLLFAICGFIQTATVLAITVSYGFIAGAVIHMRSVEGSRRAASTGGSHLTAVAMMYGTLIFMYLRPSSSYALDTDKMASVFYTLVIPSLNPLIYSLRNKEVKEALRQTWSRFHCPGQGSQ [OR5C1] :: False

Record MGDWNNSDAVEPIFILRGFPGLEYVHSWLSILFCLAYLVAFMGNVTILSVIWIESSLHQPMYYFISILAVNDLGMSLSTLPTMLAVLWLDAPEIQASACYAQLFFIHTFTFLESSVLLAMAFDRFVAICHPLHYPTILTNSVIGKIGLACLLRSLGVVLPTPLLLRHYHYCHGNALSHAFCLHQDVLRLSCTDARTNSIYGLCVVIATLGVDSIFILLSYVLILNTVLDIASREEQLKALNTCVSHICVVLIFFVPVIGVSMVHRFGKHLSPIVHILMADIYLLLPPVLNPIVYSVRTKQIRLGILHKFVLRRRF [OR51L1] ; criterion: plasma membrane surface immunostaining intensity no lower than 200. Met?
True

----------
# Tested on: HEK293T
# procedureDetails: plasma membrane surface immunostaining intensity (anti-HA, deep receptor scanning) (arbitrary fluorescence units); higher = higher plasma membrane expression
# assayContext: GPCR class: A
Measured plasma membrane surface immunostaining intensity, listed per entry for reference.

MNVSGCPGAGNASQAGGGGGWHPEAVIVPLLFALIFLVGTVGNTLVLAVLLRGGQAVSTTNLFILNLGVADLCFILCCVPFQATIYTLDGWVFGSLLCKAVHFLIFLTMHASSFTLAAVSLDRYLAIRYPLHSRELRTPRNALAAIGLIWGLSLLFSGPYLSYYRQSQLANLTVCHPAWSAPRRRAMDICTFVFSYLLPVLVLGLTYARTLRYLWRAVDPVAAGSGARRAKRKVTRMILIVAALFCLCWMPHHALILCVWFGQFPLTRATYALRILSHLVSYANSCVNPIVYALVSKHFRKGFRTICAGLLGRAPGRASGRVCAAARGTHSGSVLERESSDLLHMSEAAGALRPCPGASQPCILEPCPGPSWQGPKAGDSILTVDVA [GALR2] :: 2060

Then there is this sequence:
API: value(readout= plasma membrane surface immunostaining intensity, system= HEK293T, query= MSEEEFYLFKNISSVGPWDGPQYHIAPVWAFYLQAAFMGTVFLIGFPLNAMVLVATLRYKKLRQPLNYILVNVSFGGFLLCIFSVFPVFVASCNGYFVFGRHVCALEGFLGTVAGLVTGWSLAFLAFERYIVICKPFGNFRFSSKHALTVVLATWTIGIGVSIPPFFGWSRFIPEGLQCSCGPDWYTVGTKYRSESYTWFLFIFCFIVPLSLICFSYTQLLRALKAVAAQQQESATTQKAEREVSRMVVVMVGSFCVCYVPYAAFAMYMVNNRNHGLDLRLVTIPSFFSKSACIYNPIIYCFMNKQFQACIMKMVCGKAMTDESDTCSSQKTEVSTVSSTQVGPN [OPN1SW] )
2770
